- target_under_test: rat chymase (Rattus norvegicus, UniProt P09650)
- Construct: 50 g rat tongue was finely divided by scissors and a scalpel; from tissue; host or cells: rat tongue
- Sequence (P09650 21-260): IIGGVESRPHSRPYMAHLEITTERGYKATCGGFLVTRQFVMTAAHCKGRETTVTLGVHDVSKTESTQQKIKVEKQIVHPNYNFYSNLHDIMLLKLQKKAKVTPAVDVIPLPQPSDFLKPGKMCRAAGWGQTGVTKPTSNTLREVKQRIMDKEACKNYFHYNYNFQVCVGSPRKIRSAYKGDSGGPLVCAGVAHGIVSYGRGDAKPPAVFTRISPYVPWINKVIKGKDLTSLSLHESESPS
- assay_info: Inhibitory activity on rat chymase (synthetic substrate)
- Assay type: biochemical
- condition_details: substrate succinyl leucyl leucyl valyl tyrosyl methylcoumarylamide; pH 8.0, 37° C., 15 min; read-out: Rat Chymase (IC50: nM), 50% inhibitory concentration
Where a name gives a salt, the structure may show the parent alone.
property: IC50 (nM)
Number in nM, nothing else.

CC(=O)Nc1cnc(-c2ccccc2)n(CC(=O)NC(Cc2ccccc2)C(=O)C(=O)CCCOc2ccccn2)c1=O (stereo not shown) [Compound 80]: 52

Check rat chymase (Rattus norvegicus, UniProt P09650) data and give IC50 for CC(C)(C)OC(=O)Nc1cnc(-c2ccccc2)n(CC(=O)NC(Cc2ccccc2)C(=O)C(=O)CCc2ccccc2)c1=O (stereo not shown) [Compound 41] .
740

Give rat chymase (Rattus norvegicus, UniProt P09650) IC50 for the following compound: CCOC(=O)CCCC(=O)C(=O)C(Cc1cccc(F)c1)NC(=O)Cn1c(-c2ccccc2)ncc(N)c1=O (stereo not shown) [Compound 54]
45

For rat chymase (Rattus norvegicus, UniProt P09650), give the measured IC50 of the entry O=CNc1cnc(-c2ccccc2)n(CC(=O)NC(Cc2ccccc2)C(=O)C(=O)CCCOc2ccccn2)c1=O (stereo not shown) [Compound 79]
19

Provide the reported IC50 (system: rat chymase (Rattus norvegicus, UniProt P09650)) for Nc1cnc(-c2ccccc2)n(CC(=O)NC(Cc2ccccc2)C(=O)C(=O)CCCn2ccccc2=O)c1=O (stereo not shown) [Compound 73, hydrochloride]
550

// fetch IC50 for CC(=O)C(=O)C(Cc1ccc(F)cc1)NC(=O)Cn1c(-c2ccccc2)ncc(NC(=O)OC(C)(C)C)c1=O (stereo not shown) [Compound 55] ; system: rat chymase (Rattus norvegicus, UniProt P09650)
920

State IC50 (rat chymase (Rattus norvegicus, UniProt P09650)) of CC(=O)C(=O)C(Cc1ccccc1)NC(=O)Cn1c(-c2ccccc2)ncc(NC(=O)OC(C)(C)C)c1=O (stereo not shown) [Compound 37] .
2900

Using rat chymase (Rattus norvegicus, UniProt P09650) as the test system, report measured IC50 of CC(=O)C(=O)C(Cc1ccc(O)c(F)c1)NC(=O)Cn1c(-c2ccccc2)ncc(N)c1=O (stereo not shown) [Compound 50] .
690

Find the measured IC50 of CC(=O)C(=O)C(Cc1ccc(Cl)cc1)NC(=O)Cn1c(-c2ccccc2)ncc(N)c1=O (stereo not shown) [Compound 58] with rat chymase (Rattus norvegicus, UniProt P09650) as test system.
340

###

- target_under_test: human chymase (Homo sapiens)
- Construct: 60 g human tonsils were finely divided by scissors and a scalpel; from tissue; host or cells: human tonsils
- Sequence (P23946 22-247): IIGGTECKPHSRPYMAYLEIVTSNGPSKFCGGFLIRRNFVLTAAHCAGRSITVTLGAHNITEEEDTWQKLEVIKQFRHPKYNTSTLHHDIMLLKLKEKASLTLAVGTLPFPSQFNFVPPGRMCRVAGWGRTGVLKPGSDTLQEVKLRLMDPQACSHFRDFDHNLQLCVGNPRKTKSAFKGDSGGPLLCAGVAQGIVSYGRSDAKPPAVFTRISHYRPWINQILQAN
- assay_info: Inhibitory activity on human chymase (angiotensin I as substrate)
- Assay type: biochemical
- condition_details: substrate angiotensin I; pH 8.0, 37° C., 60 min; read-out: Human Chymase (IC50: nM), 50% inhibitory concentration
Where a name gives a salt, the structure may show the parent alone.
property: IC50 (nM)
Record the value in nM, omitting the unit from your answer.

CC(=O)C(=O)C(Cc1ccc(Cl)cc1)NC(=O)Cn1c(-c2ccccc2)ncc(N)c1=O (centres unmarked) [Compound 58]: 2850
O=C(Cn1c(-c2ccccc2)ncc(NS(=O)(=O)Cc2ccccc2)c1=O)NC(Cc1ccccc1)C(=O)C(=O)CCCOc1ccccn1 (centres unmarked) [Compound 77]: 7
CC(=O)C(=O)C(Cc1ccccc1)NC(=O)Cn1c(-c2ccccc2)ncc(NC(=O)OC(C)(C)C)c1=O (centres unmarked) [Compound 37]: 673
O=C(Cn1c(-c2ccccc2)ncc(NS(=O)(=O)NCc2ccccc2)c1=O)NC(Cc1ccccc1)C(=O)C(=O)CCCOc1ccccn1 (centres unmarked) [Compound 82]: 0.74
CC(=O)C(=O)C(Cc1cccc(F)c1)NC(=O)Cn1c(-c2ccccc2)ncc(N)c1=O (centres unmarked) [Compound 52]: 120
CC(=O)Nc1cnc(-c2ccccc2)n(CC(=O)NC(Cc2ccccc2)C(=O)C(=O)CCCOc2ccccn2)c1=O (centres unmarked) [Compound 80]: 0.9
Nc1cnc(-c2ccccc2)n(CC(=O)NC(Cc2ccccc2)C(=O)C(=O)CCCC(=O)O)c1=O (centres unmarked) [Compound 48]: 314
O=C(Cn1c(-c2ccccc2)ncc(NC(=O)OCc2ccncc2)c1=O)NC(Cc1ccccc1)C(=O)C(=O)CCCOc1ccccn1 (centres unmarked) [Compound 78]: 1.6

Write down IC50 measured for item CC(C)(C)OC(=O)Nc1cnc(-c2ccccc2)n(CC(=O)NC(Cc2ccccc2)C(=O)C(=O)CCCn2ccccc2=O)c1=O (centres unmarked) [Compound 72]
90

Give me measured IC50, please, for this molecule: CC(=O)Nc1cnc(-c2ccccc2)n(CC(=O)NC(Cc2ccccc2)C(=O)C(=O)CCCn2ccccc2=O)c1=O (centres unmarked) [Compound 76]
122

Specify reported IC50 for the molecule shown: CC(=O)C(=O)C(Cc1cccc(Cl)c1)NC(=O)Cn1c(-c2ccccc2)ncc(N)c1=O (centres unmarked) [Compound 62]
131

In one line, give reported IC50 of the entry Nc1cnc(-c2ccccc2)n(CC(=O)NC(Cc2ccccc2)C(=O)C(=O)CCCc2ccccc2)c1=O (centres unmarked) [Compound 40] .
190

Fill in reported IC50 for this entry: O=C(Cn1c(-c2ccccc2)ncc(NC(=O)C2CCOC2)c1=O)NC(Cc1ccccc1)C(=O)C(=O)CCCc1ccccc1 (centres unmarked) [Compound 81]
114

Give IC50 for the following molecule: Nc1cnc(-c2ccccc2)n(CC(=O)NC(Cc2ccccc2)C(=O)C(=O)CCCn2ccccc2=O)c1=O (centres unmarked) [Compound 73, hydrochloride]
46

###

- target_under_test: dog chymase (Canis lupus familiaris)
- Construct: 60 g dog heart was finely divided by scissors and a scalpel; from tissue; host or cells: dog heart
- Sequence (P21842 22-249): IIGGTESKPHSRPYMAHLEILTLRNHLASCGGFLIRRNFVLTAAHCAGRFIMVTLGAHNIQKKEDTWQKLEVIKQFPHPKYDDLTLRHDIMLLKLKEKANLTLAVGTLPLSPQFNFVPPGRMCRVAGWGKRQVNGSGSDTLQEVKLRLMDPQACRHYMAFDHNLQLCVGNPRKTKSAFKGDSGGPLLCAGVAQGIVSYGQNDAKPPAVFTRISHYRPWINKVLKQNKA
- assay_info: Inhibitory activity on dog chymase (angiotensin I as substrate)
- Format: biochemical
- condition_details: pH 8.0, 37° C., 60 min, read-out: Dog Chymase (IC50: nM), 50% inhibitory concentration
Threshold check on IC50: strictly below 10 nM is Satisfied; on or above 10 nM is Not satisfied.

These recorded examples may help you get a feel for the data.
O=C(Cn1c(-c2ccccc2)ncc(NS(=O)(=O)NCc2ccccc2)c1=O)NC(Cc1ccccc1)C(=O)C(=O)CCCOc1ccccn1 (stereo not drawn): Satisfied
O=C(Cn1c(-c2ccccc2)ncc(NC(=O)OCc2ccncc2)c1=O)NC(Cc1ccccc1)C(=O)C(=O)CCCOc1ccccn1 (stereo not drawn): Satisfied
O=C(Cn1c(-c2ccccc2)ncc(NS(=O)(=O)Cc2ccccc2)c1=O)NC(Cc1ccccc1)C(=O)C(=O)CCCOc1ccccn1 (stereo not drawn): Satisfied
CC(=O)C(=O)C(Cc1ccccc1)NC(=O)Cn1c(-c2ccccc2)ncc(NC(=O)OC(C)(C)C)c1=O (stereo not drawn): Not satisfied
CC(=O)C(=O)C(Cc1cccc(F)c1)NC(=O)Cn1c(-c2ccccc2)ncc(N)c1=O (stereo not drawn): Not satisfied
CCCCC(=O)C(=O)C(Cc1ccccc1)NC(=O)Cn1c(-c2ccccc2)ncc(N)c1=O (stereo not drawn): Not satisfied

Could you please tell me whether IC50 recorded for CC(=O)Nc1cnc(-c2ccccc2)n(CC(=O)NC(Cc2ccccc2)C(=O)C(=O)CCCn2ccccc2=O)c1=O (stereo not drawn) is less than 10 nM?
Satisfied

Could you please tell me whether IC50 recorded for CCOC(=O)CCCC(=O)C(=O)C(Cc1cccc(F)c1)NC(=O)Cn1c(-c2ccccc2)ncc(N)c1=O (stereo not drawn) is less than 10 nM?
Satisfied

Decide: IC50 of CC(C)(C)OC(=O)Nc1cnc(-c2ccccc2)n(CC(=O)NC(Cc2ccccc2)C(=O)C(=O)CCc2ccccc2)c1=O (stereo not drawn) strictly below 10 nM?
Not satisfied

###

- target_under_test: rat chymase (Rattus norvegicus, UniProt P09650)
- Construct: 50 g rat tongue was finely divided by scissors and a scalpel; from tissue; host or cells: rat tongue
- assay_info: Inhibitory activity on rat chymase (synthetic substrate)
- Assay type: biochemical
- condition_details: substrate succinyl leucyl leucyl valyl tyrosyl methylcoumarylamide; pH 8.0, 37° C., 15 min; read-out: Rat Chymase (IC50: nM), 50% inhibitory concentration
property: IC50 (nM)
Write down the numeric answer in nM and omit the unit.

Study these solved cases before continuing.
CC(=O)C(=O)C(Cc1cccc(Cl)c1)NC(=O)Cn1c(-c2ccccc2)ncc(N)c1=O (centres unmarked) [Compound 62]: 200
Nc1cnc(-c2ccccc2)n(CC(=O)NC(Cc2ccccc2)C(=O)C(=O)c2ccccc2)c1=O (centres unmarked) [Compound 46]: 2800
O=C(Cn1c(-c2ccccc2)ncc(NS(=O)(=O)Cc2ccccc2)c1=O)NC(Cc1ccccc1)C(=O)C(=O)CCCOc1ccccn1 (centres unmarked) [Compound 77]: 48
CCCCC(=O)C(=O)C(Cc1ccccc1)NC(=O)Cn1c(-c2ccccc2)ncc(N)c1=O (centres unmarked) [Compound 44]: 79

Now for the molecule whose IC50 we want.
Fill in: IC50 on rat chymase (Rattus norvegicus, UniProt P09650), entry CC(=O)Nc1cnc(-c2ccccc2)n(CC(=O)NC(Cc2ccccc2)C(=O)C(=O)CCCn2ccccc2=O)c1=O (centres unmarked) [Compound 76]
190

Numbers sourced from patent US6271238A.
